# credit: patent EP3564214B1

Biological target: CB receptors (Rattus norvegicus)
Construct: Crude membrane fractions were prepared from the brain without cerebellum; from tissue; host or cells: Wistar rat brain without cerebellum, crude membrane fraction
Sequence (P20272 whole entry): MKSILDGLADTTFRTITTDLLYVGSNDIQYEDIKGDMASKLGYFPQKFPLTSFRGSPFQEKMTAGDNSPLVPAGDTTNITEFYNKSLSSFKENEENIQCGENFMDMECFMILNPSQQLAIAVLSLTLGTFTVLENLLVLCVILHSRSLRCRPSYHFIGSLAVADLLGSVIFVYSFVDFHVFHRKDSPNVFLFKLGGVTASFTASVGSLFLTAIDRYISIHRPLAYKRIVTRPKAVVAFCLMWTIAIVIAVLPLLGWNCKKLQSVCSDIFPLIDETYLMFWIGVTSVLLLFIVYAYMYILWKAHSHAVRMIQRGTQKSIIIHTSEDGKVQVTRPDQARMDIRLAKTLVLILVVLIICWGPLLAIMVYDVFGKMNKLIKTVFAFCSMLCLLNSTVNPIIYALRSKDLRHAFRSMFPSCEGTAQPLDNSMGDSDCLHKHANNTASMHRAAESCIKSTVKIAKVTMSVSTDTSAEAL
Test: [3H]WIN55212-2 competition binding in rat brain membrane homogenate
Conditions: 1.5 nM [3H]WIN55212-2, rat brain membranes; mean of three independent measurements (S.E.M. 5-12%); read-out: Ki (nM)*
TEST_READOUT: Ki (nM)
Numeric answer only, unit nM assumed.

What does the data say about its Ki? Entry: CCCCCn1cc(C(=O)c2cccc3ccccc23)c2ccccc21 [JWH-018, reference compound]
3.5

* * *

Test system: CB receptor-associated G-proteins
Assay: Ligand stimulated [35S]GTPγS binding assay in rat brain membrane homogenate
Type: biochemical
Settings: rat brain membrane homogenate
TEST_READOUT: G-protein stimulation (functional character)

NC(=O)c1nn(Cc2ccc(Cl)cc2Cl)c2ccccc12 [LONI B, reference compound] ... weak inverse agonist
COC(=O)c1nn(Cc2ccc(Cl)cc2Cl)c2ccccc12 [LONI C, reference compound] ... weak inverse agonist

* * *

Target: CB receptor-associated G-proteins
Experiment: Ligand stimulated [35S]GTPγS binding assay in rat brain membrane homogenate
Assay type: biochemical
Details: [35S]GTPγS binding, rat brain membranes; read-out: EC50
// reported pEC50 for each item listed
Reminder that pEC50 is minus the log10 of a molar concentration.

A selection of reference data follows.
CC(C)(C)[C@H](NC(=O)c1nn(Cc2ccc(Cl)cc2Cl)c2ccccc12)C(N)=O ... 6.90
CC(C)C[C@H](NC(=O)c1nn(Cc2ccc(Cl)cc2Cl)c2ccccc12)C(=O)O ... 5.73
CC(C)(C)[C@H](NC(=O)c1nn(Cc2ccc(Cl)cc2Cl)c2ccccc12)C(=O)O ... 5.55

For CB receptor-associated G-proteins, provide pEC50 of CC(C)[C@H](NC(=O)c1nn(Cc2ccc(Cl)cc2Cl)c2ccccc12)C(=O)O please.
5.48
